# test: Liver microsome stability test, mouse
# Assay type: in vitro ADME
# condition_set: mouse liver microsomes; CD-1 mouse (M) liver microsome; read-out: Liver microsome stability (T1/2, min)
# Method: A test compound was incubated with CD-1 mouse liver microsome, SD rat liver microsome, and human liver microsome, respectively, to evaluate the stability of the test compound. […]
result_type: half-life (min)
API: value field is a number in min; no unit string.

CC(C)CC(NC(=O)[C@H](CC1CC1)NC(=O)[C@@H]1CCN1c1nc(C(F)(F)F)cs1)B(O)O (some centres unmarked) [WX-308] = 20.1
CC(C)CC(NC(=O)[C@H](C)NC(=O)[C@@H]1CCN1c1ncc(F)cn1)B(O)O (single isomer, unassigned) [WX-313] = 52.5
CC(C)CC(NC(=O)CNC(=O)[C@@H]1CCN1c1nc(C(F)(F)F)cs1)B(O)O (some centres unmarked) [WX-327] = 37.7
CC(C)CC(NC(=O)[C@H](Cc1ccccc1)NC(=O)[C@@H]1CCN1c1ccc(F)cc1)B(O)O (single isomer, unassigned) [WX-193] = 2.7
CC(C)CC(NC(=O)CNC(=O)[C@@H]1CCN1c1ccc(F)cc1)B(O)O (single isomer, unassigned) [WX-301] = 43.5
CC(C)CC(NC(=O)CNC(=O)[C@@H]1CCN1c1ccc(C(F)(F)F)cn1)B(O)O (some centres unmarked) [WX-329] = 40.3

// sample CC(C)CC(NC(=O)[C@H](CC1CC1)NC(=O)[C@@H]1CCN1c1ncc(F)cn1)B(O)O (some centres unmarked) [WX-260] , its half-life was 84.8

// sample CC(C)CC(NC(=O)[C@H](Cc1ccccc1)NC(=O)[C@@H]1CCN1c1nccc(-c2ccccc2)n1)B(O)O (some centres unmarked) [WX-174] , its half-life was 0.8

// sample CC(C)CC(NC(=O)CNC(=O)[C@@H]1CCN1c1ccc(F)cc1F)B(O)O (single isomer, unassigned) [WX-333] , its half-life was 67.4

// sample CC(C)CC(NC(=O)CNC(=O)[C@@H]1CCN1c1ccc(F)cn1)B(O)O (single isomer, unassigned) [WX-317] , its half-life was 27.1

// sample CC(C)CC(NC(=O)[C@H](CC1CC1)NC(=O)[C@@H]1CCN1c1ccc(C(F)(F)F)cn1)B(O)O (some centres unmarked) [WX-306] , its half-life was 14

* * *

# Test system: MDR1
# test: Cell membrane permeability test on MDR1-MDCK II cells
# Type: in vitro ADME
# condition_set: dog, 2 μM, 150 minutes, pH=7.4
result_type: Papp A→B at 150 min, 2 μM (×10⁻⁶ cm/s)
API: value field is a number in ×10⁻⁶ cm/s; no unit string.

CC(C)CC(NC(=O)[C@H](CC1CC1)NC(=O)[C@@H]1CCN1c1nc(C(F)(F)F)cs1)B(O)O (stereo partly shown) = 0.2
CC(C)CC(NC(=O)CNC(=O)[C@@H]1CCN1c1nc(C(F)(F)F)cs1)B(O)O (stereo partly shown) = 0.24
CC(C)CC(NC(=O)CNC(=O)[C@@H]1CCN1c1ccc(F)cn1)B(O)O (single isomer, unassigned) = 0.01
CC(C)CC(NC(=O)[C@H](CC1CC1)NC(=O)[C@@H]1CCN1c1ccc(C(F)(F)F)cn1)B(O)O (stereo partly shown) = 0.3
CC(C)CC(NC(=O)CNC(=O)[C@@H]1CCN1c1ccc(F)cc1F)B(O)O (single isomer, unassigned) = 0.38
CC(C)CC(NC(=O)[C@H](C)NC(=O)[C@@H]1CCN1c1ncc(F)cn1)B(O)O (single isomer, unassigned) = 0.2

Next:
// sample CC(C)CC(NC(=O)CNC(=O)[C@@H]1CCN1c1ccc(C(F)(F)F)cn1)B(O)O (stereo partly shown) , its Papp A→B at 150 min, 2 μM was 0.27
